Tested on: SK-MEL-28
Assay: Inhibition of cells growth by colorimetric assay (SRB)
Settings: Homo sapiens, SK-MEL-28, 48 h, read-out: LC50 MEL-28
Protocol: This form of the assay employs 96 well cell culture microplates of 9 mm diameter (Faircloth, 1988; Mosmann, 1983). Most of the cell lines are obtained from American Type Culture Collection (ATCC) derived from different human cancer types. […] The values for mean +/− SD of data from triplicate wells are calculated. Some parameters for cellular responses can be calculated: GI=growth inhibition, TGI=total growth inhibition (cytostatic effect) and LC=cell killing (cytotoxic effect).
Assign CC50 to each entry below.
Give bare numbers, in nM.

Consider the worked cases shown below.
COc1c(C)cc2c(c1O)[C@H]1N[C@@H](C2)[C@H](O)N2C1[C@@H]1SCC(NC(C)=O)C(=O)OC[C@H]2c2c3c(c(C)c(OC(C)=O)c21)OCO3 (stereo partly drawn)    8.71
COc1c(C)cc2c(c1O)[C@H]1N[C@@H](C2)[C@H](C#N)N2C1[C@@H]1SCC(NC(=O)C(F)(F)F)C(=O)OC[C@H]2c2c3c(c(C)c(OC(C)=O)c21)OCO3 (stereo partly drawn)    8.06

Now take the following molecule into account.
Exam item: May I ask what CC50 has been recorded for CCC(=O)NC1CS[C@@H]2c3c(OC(C)=O)c(C)c4c(c3[C@H](COC1=O)N1C2[C@@H]2N[C@@H](Cc3cc(C)c(OC)c(O)c32)[C@@H]1C#N)OCO4 (stereo partly drawn) ?
Marked response: 97.9

----------
test system: LoVo-Dox; experiment: Inhibition of cells growth by colorimetric assay (SRB); conditions: Homo sapiens, 48 h, read-out: GI50 LOVO-DOX
Measured endpoint: GI50 (nM)
Give bare numbers, in nM.

Consider the worked cases shown below.
C=CCOc1c(C)c2c(c3c1CC1[C@H]4c5c(cc(C)c(OC)c5O)C[C@@H]([C@H](C#N)N1[C@H]3CN)N4C)OCO2 (stereo partly drawn)    6170
C=CCN1[C@@H]2c3c(cc(C)c(OC)c3O)C[C@H]1[C@H](C#N)N1C2[C@@H]2SCC(N)C(=O)OC[C@H]1c1c3c(c(C)c(OC(C)=O)c12)OCO3 (stereo partly drawn)    504

Now take the following molecule into account.
Exam item: May I ask what GI50 has been recorded for CCCCCCCCCCCCCCCC(=O)NC1CS[C@@H]2c3c(OC(C)=O)c(C)c4c(c3[C@H](COC1=O)N1C2[C@@H]2N[C@@H](Cc3cc(C)c(OC)c(O)c32)[C@@H]1C#N)OCO4 (stereo partly drawn) ?
Marked response: 802

----------
Assign log10(CC50) to each entry below.
test system: SK-MEL-28; test: Inhibition of cells growth by colorimetric assay (SRB); details: Homo sapiens, SK-MEL-28, 48 h, read-out: LC50 MEL-28
Please interpret these as log10 of CC50 where CC50 is in µM.

Consider the worked cases shown below.
CCCCCCCCCCCCCCCC(=O)NC1CS[C@@H]2c3c(OC(C)=O)c(C)c4c(c3[C@H](COC1=O)N1C2[C@@H]2N[C@@H](Cc3cc(C)c(OC)c(O)c32)[C@@H]1O)OCO4 (stereo partly shown)    -0.07
C=CCN1[C@@H]2c3c(cc(C)c(OC)c3O)C[C@H]1[C@H](C#N)N1C2[C@@H]2SCC(NC(=O)CCCCCCCCCCCCCCC)C(=O)OC[C@H]1c1c3c(c(C)c(OC(C)=O)c12)OCO3 (stereo partly shown)    1.06
C=CCOc1c(C)c2c(c3c1CC1[C@H]4c5c(cc(C)c(OC)c5O)C[C@@H]([C@H](C#N)N1[C@H]3CO)N4C)OCO2 (stereo partly shown)    0.73

Go through the items and report each one's log10(CC50).
1. COc1c(C)cc2c(c1O)[C@@H]1C3[C@@H]4SC[C@]5(NCCc6c5[nH]c5ccccc65)C(=O)OC[C@@H](c5c6c(c(C)c(OC(C)=O)c54)OCO6)N3[C@@H](C#N)[C@H](C2)N1C (stereo partly shown)
2. CCCCCCCCCCCCCCCC(=O)NC1CS[C@@H]2c3c(OC(C)=O)c(C)c4c(c3[C@H](COC1=O)N1C2[C@@H]2N[C@@H](Cc3cc(C)c(OC)c(O)c32)[C@@H]1C#N)OCO4 (stereo partly shown)
3. C=CCN1[C@@H]2c3c(cc(C)c(OC)c3O)C[C@H]1[C@H](C#N)N1C2[C@@H]2SC[C@H](NC(=O)c3cc4ccccc4oc3=O)C(=O)OC[C@H]1c1c3c(c(C)c(OC(C)=O)c12)OCO3 (stereo partly shown)
4. COC1=C(C)C(=O)C2=C(C1=O)[C@@H]1C3[C@@H]4SC[C@]5(NCCc6c5[nH]c5ccccc65)C(=O)OC[C@@H](c5c6c(c(C)c(OC(C)=O)c54)OCO6)N3[C@@H](C#N)[C@H](C2)N1C (stereo partly shown)
5. COc1c(C)cc2c(c1OC(=O)/C=C/c1ccccc1)[C@H]1N[C@@H](C2)[C@H](C#N)N2C1[C@@H]1SCC(NC(=O)C(F)(F)F)C(=O)OC[C@H]2c2c3c(c(C)c(OC(C)=O)c21)OCO3 (stereo partly shown)

Marked response:
[-0.99, 0.85, -0.16, -0.07, -0.95]

Go through the items and report each one's log10(CC50).
1. C=CCN1[C@@H]2c3c(cc(C)c(OC)c3O)C[C@H]1[C@H](C#N)N1C2[C@@H]2SCC(NC(=O)C(F)(F)F)C(=O)OC[C@H]1c1c3c(c(C)c(OC(C)=O)c12)OCO3 (stereo partly shown)
2. C=CCOc1c(C)c2c(c3c1CC1[C@H]4c5c(cc(C)c(OC)c5O)C[C@@H]([C@H](C#N)N1[C@H]3CN)N4C)OCO2 (stereo partly shown)

Marked response:
[0.75, 0.78]
